Test system: PAF-induced platelet aggregation
Assay: Inhibitory effect on PAF-induced platelet aggregation in rabbits (in vitro test)
Type: cell-based
Conditions: Oryctolagus cuniculus, rabbit PRP, PAF 1.8×10^-7 M, 37° C., read-out: Inhibition of PAF-induced platelet aggregation, IC50
Form field: IC50 (one value per entry).
READOUT TYPE: IC50 (µg/mL)

• CCc1cc2c(s1)-n1c(C)nnc1CN=C2c1ccccc1Cl [Etizolam, reference compound] = 1.3
• CCCCc1ccc(CCc2cc3c(s2)-n2c(C)nnc2CN=C3c2ccccc2Cl)cc1 = 0.01

---

Tested on: PAF-induced platelet aggregation
Assay: Inhibitory effect on PAF-induced platelet aggregation in rabbits (in vitro test)
Format: cell-based
Conditions: Oryctolagus cuniculus, rabbit PRP, PAF 1.8×10^-7 M, 37° C., read-out: Inhibition of PAF-induced platelet aggregation, IC50
Form field: IC50 (one value per entry).
READOUT TYPE: IC50

- CCCCc1ccc(CCc2cc3c(s2)-n2c(C)nnc2C(C)N=C3c2ccccc2Cl)cc1 (stereo not drawn): 0.01 to 0.03 µg/mL
- Cc1nnc2n1-c1sc(CCc3ccccc3)cc1C(c1ccccc1Cl)=NC2: 0.03 to 0.1 µg/mL
- COc1ccc(CCc2cc3c(s2)-n2c(C)nnc2CN=C3c2ccccc2Cl)cc1: 0.01 to 0.03 µg/mL

These measurements were taken from patent US4820703A.
